Catalogue of melting point readings, one per entry.
Structures can show the parent of a compound that is named as a salt.
test_readout: melting point

{"compound": "CC(C)C(=O)c1cc2c(=O)n(NS(C)(=O)=O)c(=O)[nH]c2cc1C(F)(F)F", "test_readout": "melting point", "result": "228 to 231 °C"}
{"compound": "CS(=O)(=O)Nn1c(=O)[nH]c2cc(C(F)(F)F)c(C(=O)C(F)(F)F)cc2c1=O", "test_readout": "melting point", "result": "262 to 265 °C"}
{"compound": "CN(C)Cc1cccc(-c2cc3c(=O)n(NS(C)(=O)=O)c(=O)[nH]c3cc2C(F)(F)F)c1", "test_readout": "melting point", "result": "346 to 348 °C"}
{"compound": "CS(=O)(=O)Nn1c(=O)[nH]c2cc(C(F)(F)F)c(-c3cccc(CN)c3)cc2c1=O (as salt: hydrochloride)", "test_readout": "melting point", "result": "282 to 284 °C"}
{"compound": "CC(C)C(O)c1cc2c(=O)n(NS(C)(=O)=O)c(=O)[nH]c2cc1C(F)(F)F (centres unmarked)", "test_readout": "melting point", "result": "232 to 235 °C"}
{"compound": "CC(O)c1cc2c(=O)n(NS(C)(=O)=O)c(=O)[nH]c2cc1C(F)(F)F (racemic)", "test_readout": "melting point", "result": "263 to 268 °C"}
{"compound": "CCCOC(C)c1cc2c(=O)n(NS(C)(=O)=O)c(=O)[nH]c2cc1C(F)(F)F (centres unmarked)", "test_readout": "melting point", "result": "95 to 105 °C"}
{"compound": "CS(=O)(=O)Nn1c(=O)[nH]c2cc(C(F)(F)F)c(C3CCCCO3)cc2c1=O (centres unmarked)", "test_readout": "melting point", "result": "275 to 280 °C"}
